Target: T1, human IL-1α (human, UniProt P01583 113-271)
T1 construct: also called IL-1alpha; hIL-1α
T1 sequence (looked up): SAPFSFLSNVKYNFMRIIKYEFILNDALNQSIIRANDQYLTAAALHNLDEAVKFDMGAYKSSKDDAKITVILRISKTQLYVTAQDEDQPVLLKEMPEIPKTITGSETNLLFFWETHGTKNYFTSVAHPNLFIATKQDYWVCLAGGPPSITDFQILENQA
Assay: Table 62 IC50; RBA presumed
measured.metric: IC50 (nM)

binder	IC50 (nM)
ABT1-95-148 (other, VK dAb) VL: DIQMTQSPSSLSASVGDRVTITCRASQTIVRNLRWYQQKPGKAPKLLIYSSSYLEPGVPSRFSGSGSGTDFTLTISSLQPEDFATYHCQQGYRWPVTFGQGTKVEIKR	0.2
ABT1-95-118 (other, VK dAb) VL: DIQMTQSPSSLSASVGDRVTITCRASQPIVRNLRWYQQKPGKAPKLLIYSSSYLEPGVPSRFSGSGSGTDFTLTISSLQPEDFATYHCSQGYRWPVTFGQGTKVEIKR	0.2
ABT1-95-8 (other, VK dAb) VL: DIQMTQSPSSLSASVGDRVTITCRASQPIQGNLRWYQQKPGKAPKLLIYSSSYLERGVPSRFSGSGSGTDFTLTISSLQPEDFATYHCQQGYRWPVTFGQGTKVEIKR	0.8
ABT1-141-35 (other, VK dAb) VL: DIQMTQSPSSLSASVGDRVTITCRASQWIQKQLAWYQQKPGKAPKLLIYSASWLQSGVPSRFSGSGSGTDFTLTISSLQPEDFATYYCQQHLRVPMTFGQGTKVEIKR	10

(A) ABT1-95-152 (other, VK dAb) VL: DIQMTQSPSSLSASVGDRVTITCRAGQPIPRNLRWYQQKPGKAPKLLIYSSSYLEPGVPSRFSGSGSGTDFTLTISSLQPEDFATYHCQQGYRWPVTFGQGTKVEIKR
(B) ABT1-141-45 (other, VK dAb) VL: DIQMTQSPSSLSASVGDRVTITCRASQWIQKQLAWYQQKPGKAPKLLIYSSSYLQSGVPSRFSGSGSGTDFTLTISSLQLEDFATYYCQQHLRVPMTLGQGTKVEIKR
# min-compare on IC50 between A and B // output: label of the selected item
A
